Attribution: ChEMBL document CHEMBL4342522

- PROCEDURE DETAILS: AUC in mouse at 1 mg/kg, iv
- Format: ADME, organism-based
- CONDITION LABEL: in vivo
MEASURE NAME: AUC (ng·h/mL)
State the answer as a number, implicitly in ng·h/mL.

Please indicate AUC recorded for CCNC(=O)c1cc2c(-c3cc(C(C)(C)O)ccc3Oc3c(C)cc(F)cc3C)cn(C)c(=O)c2[nH]1 [ABBV-744]
3800

Please indicate AUC recorded for CCNC(=O)c1cc2c(-c3cc(S(=O)(=O)CC)ccc3Oc3c(C)cccc3C)cn(C)c(=O)c2[nH]1
1440

====

What pKi was measured for each of the following?
- TESTED SYSTEM: Bromodomain-containing protein 4 (Homo sapiens, UniProt O60885)
- PROCEDURE DETAILS: Inhibition of human N-terminal His6 tagged BRD4 BD2 (352 to 457) residues expressed in Escherichia coli BL21(DE3) cells after 1 hr by TR-FRET assay
In simple prose, pKi is minus the logarithm base ten of a concentration in moles per litre.

Provide pKi, recorded with Bromodomain-containing protein 4 (Homo sapiens, UniProt O60885), of CCNC(=O)c1cc2c(-c3cc(S(=O)(=O)CC)ccc3Oc3ccccc3Cl)cn(C)c(=O)c2[nH]1
9.30

Provide pKi, recorded with Bromodomain-containing protein 4 (Homo sapiens, UniProt O60885), of Cc1cc(F)cc(C)c1Oc1ccc(C(C)(C)O)cc1-c1cn(C)c(=O)c2[nH]c(C(=O)NC3(C)CC3(F)F)cc12 (stereo unspecified)
8.70

Provide pKi, recorded with Bromodomain-containing protein 4 (Homo sapiens, UniProt O60885), of CCNC(=O)c1cc2c(-c3cc(S(=O)(=O)CC)ccc3Oc3c(C)cccc3C(C)(C)C)cn(C)c(=O)c2[nH]1
7.82

Provide pKi, recorded with Bromodomain-containing protein 4 (Homo sapiens, UniProt O60885), of CCNC(=O)c1cc2c(-c3cc(C(C)(C)O)ccc3Oc3c(C)cccc3C)cn(C)c(=O)c2[nH]1
9.22

Provide pKi, recorded with Bromodomain-containing protein 4 (Homo sapiens, UniProt O60885), of CCNC(=O)c1cc2c(-c3cc(S(=O)(=O)CC)ccc3Oc3c(C)cccc3F)cn(C)c(=O)c2[nH]1
9.05

Provide pKi, recorded with Bromodomain-containing protein 4 (Homo sapiens, UniProt O60885), of CCNC(=O)c1cc2c(-c3cc(S(=O)(=O)CC)ccc3Oc3c(C)cccc3Br)cn(C)c(=O)c2[nH]1
9.00

Provide pKi, recorded with Bromodomain-containing protein 4 (Homo sapiens, UniProt O60885), of CCNC(=O)c1cc2c(-c3cc(S(=O)(=O)C4CC4)ccc3Oc3c(C)cccc3C)cn(C)c(=O)c2[nH]1
9.22

Provide pKi, recorded with Bromodomain-containing protein 4 (Homo sapiens, UniProt O60885), of CCNC(=O)c1cc2c(-c3cc(CO)ccc3Oc3c(C)cccc3C)cn(C)c(=O)c2[nH]1
8.77

Provide pKi, recorded with Bromodomain-containing protein 4 (Homo sapiens, UniProt O60885), of CCNC(=O)c1cc2c(-c3cc(C4(O)CCC4)ccc3Oc3c(C)cc(F)cc3C)cn(C)c(=O)c2[nH]1
8.82

Provide pKi, recorded with Bromodomain-containing protein 4 (Homo sapiens, UniProt O60885), of CCNC(=O)c1cc2c(-c3cc(C(=O)O)ccc3Oc3c(C)cccc3C)cn(C)c(=O)c2[nH]1
8.55

Provide pKi, recorded with Bromodomain-containing protein 4 (Homo sapiens, UniProt O60885), of CCNC(=O)c1cc2c(-c3cc(S(=O)(=O)CC)ccc3N3CCc4cccc(C)c43)cn(C)c(=O)c2[nH]1
9.30

Provide pKi, recorded with Bromodomain-containing protein 4 (Homo sapiens, UniProt O60885), of CCNC(=O)c1cc2c(-c3cc(S(=O)(=O)CC)ccc3Oc3ccccc3C(C)(C)C)cn(C)c(=O)c2[nH]1
8.68

Provide pKi, recorded with Bromodomain-containing protein 4 (Homo sapiens, UniProt O60885), of CCNC(=O)c1cc2c(-c3cc(S(=O)(=O)CC)ccc3-c3ccccc3C)cn(C)c(=O)c2[nH]1
8.96

Provide pKi, recorded with Bromodomain-containing protein 4 (Homo sapiens, UniProt O60885), of CCNC(=O)c1cc2c(-c3cc(S(C)(=O)=O)ccc3Oc3c(C)cccc3C)cn(C)c(=O)c2[nH]1
8.92

Provide pKi, recorded with Bromodomain-containing protein 4 (Homo sapiens, UniProt O60885), of Cc1cc(F)cc(C)c1Oc1ccc(C(C)(C)O)cc1-c1cn(C)c(=O)c2[nH]c(C(=O)NC34CC(C3)C4)cc12
8.89

Provide pKi, recorded with Bromodomain-containing protein 4 (Homo sapiens, UniProt O60885), of CCNC(=O)c1cc2c(-c3cc(S(=O)(=O)CC)ccc3-n3ccc4cccc(C)c43)cn(C)c(=O)c2[nH]1
8.96
